Test system: Hs-578T
protocol: NCI tumour cell line growth inhibition, 48 h
Active and inactive are the calls of the source. Cut-off read from the data, not from the text of the source: active = GI50 up to about 1.1 µM and inactive = higher.

{"molecule": "COC12OC3(C4OC41)C(C(=O)O[C@H]3CO[Si](C)(C)C(C)(C)C)C2C(=O)Oc1ccccc1 (stereo not given in full)", "GI50": "> 100 µM (inactive)"}
{"molecule": "c1ncc(C23C4C5C6C4C2C6C53)[nH]1 (stereo not given)", "GI50": "> 100 µM (inactive)"}
{"molecule": "CC(=O)ONC(C(=O)C(C)(C)C)C(=O)C(C)(C)C", "GI50": "> 100 µM (inactive)"}
{"molecule": "Cc1cn(C2C=CC(COP(=O)(OCC3=CC(=O)c4ccccc4C3=O)N(C)CCCCCl)O2)c(=O)[nH]c1=O (stereo not given)", "GI50": "3.9 µM (inactive)"}
{"molecule": "O=C(O)CC12CC3CC(CC(O)(C3)C1)C2", "GI50": "27.5 µM (inactive)"}
{"molecule": "CC(C(=O)n1ccnc1)N1c2ccccc2Sc2ccccc21 (stereo not given)", "GI50": "> 100 µM (inactive)"}
{"molecule": "COC(=O)c1c2c(c3[nH]c4ccccc4c3c1C(=O)OC)C(=O)C1=C(C2=O)C2(Cl)C(Cl)C(Cl)C1(Cl)C2(Cl)Cl (stereo not given)", "GI50": "3.13 µM (inactive)"}
{"molecule": "COc1ccc(/N=N/C(=N/NC(=O)c2ccccc2)c2ccc(N(CCC#N)CCC#N)cc2C)cc1", "GI50": "23.4 µM (inactive)"}
{"molecule": "OC[C@@H](O)[C@H](O)[C@@H](O)/C=N/Nc1ccc(Cl)nn1", "GI50": "> 100 µM (inactive)"}
{"molecule": "c1c[nH]c(CN2CCN(Cc3ncc[nH]3)CC2)n1", "GI50": "> 100 µM (inactive)"}

* * *

Test system: OVCAR-8
protocol: NCI tumour cell line growth inhibition, 48 h
Active and inactive are the calls of the source. No stated cut-off is given here; in the data, active = GI50 up to about 1.1 µM and inactive = higher.
Outcomes: T (active), F (inactive)

{"smiles_string": "O=C(Cc1nc2ccccc2s1)C(=O)Nc1ccc(Cl)cc1Cl", "category_label": "F"}
{"smiles_string": "O=C1C(NCCc2cc(Br)c(O)c(Br)c2)=CC(=O)c2ncccc21", "category_label": "F"}
{"smiles_string": "CC(C)(C)OC(=O)n1c2ccccc2c2c(=O)nc(N3CCCCC3)sc21", "category_label": "F"}
{"smiles_string": "CCOC(=O)C1(C(=O)OCC)CC(=O)[C@@]2(C1)OCC[C@H]1OC(=O)C[C@H]12", "category_label": "F"}
{"smiles_string": "CC[C@@]1(O)C(=O)OCc2c1cc1n(c2=O)Cc2c-1nc1ccc(O)cc1c2CC[Si](C)(C)C", "category_label": "T"}

* * *

Tested on: HL-60
protocol: NCI tumour cell line growth inhibition, 48 h
Active and inactive are the calls of the source. Cut-off read from the data, not from the text of the source: active = GI50 up to about 1.1 µM and inactive = higher.
Outcomes: active, inactive

{"compound": "O=[N+]([O-])c1ccc(-c2csc(=[N+]3CCCCC3)s2)cc1", "category_label": "inactive"}
{"compound": "Cc1cn(C2C=CC(COP(=O)(OCC3=CC(=O)c4ccccc4C3=O)N(C)CCCCCl)O2)c(=O)[nH]c1=O (stereo not given)", "category_label": "inactive"}
{"compound": "O=C(Oc1cncc(Cl)c1)c1cc2ccccc2sc1=O", "category_label": "inactive"}
{"compound": "CC(C)C(NCc1c2ccccc2[n+]([O-])c2ccccc12)C(=O)O (stereo not given)", "category_label": "inactive"}
{"compound": "COC(=O)C(Cc1ccccc1)NC(=O)CCCNC(=O)OCc1ccccc1 (stereo not given)", "category_label": "inactive"}
{"compound": "COc1ccc(/C=C2\\S/C(=N/Nc3nc(-c4ccccc4)cs3)NC2=O)cc1OC", "category_label": "inactive"}
{"compound": "CC(NNC(=O)c1cc[n+]([BH2-]C#N)cc1)c1ccc(Cl)c(Cl)c1 (stereo not given)", "category_label": "inactive"}
{"compound": "CN/N=C(/CC(=O)c1sc(NNC(C)=O)nc1C)C(=O)Nc1ccc(OC)cc1OC", "category_label": "inactive"}
{"compound": "Cc1nc(N(CCO)CCO)c2sc(=S)n(-c3ccccc3)c2n1", "category_label": "inactive"}
{"compound": "CCc1c(CNc2ccc(C(=O)NC(CC(=O)O)C(=O)O)cc2)ccc2nc(N)nc(N)c12 (stereo not given)", "category_label": "active"}
{"compound": "CC(C)=CCC/C(C)=C/CC/C(C)=C/CSc1ccc(Cl)cc1C(=O)O", "category_label": "inactive"}
{"compound": "CC(C)=CCc1c2c(c3occ(-c4ccc(O)cc4)c(=O)c3c1O)CC(C(C)(C)O)O2 (stereo not given)", "category_label": "inactive"}
{"compound": "COC(=O)c1c2c(c3[nH]c4ccccc4c3c1C(=O)OC)C(=O)C1=C(C2=O)C2(Cl)C(Cl)C(Cl)C1(Cl)C2(Cl)Cl (stereo not given)", "category_label": "inactive"}
{"compound": "O=C(O)c1cc(/N=C/c2ccccc2O)cc(C(=O)O)c1", "category_label": "inactive"}
{"compound": "N#CC(C(=O)C(=O)NCCCNC(=O)C(=O)C(C#N)c1ccccc1)c1ccccc1 (stereo not given)", "category_label": "inactive"}
{"compound": "CC[C@@]1(O)C(=O)OCc2c1cc1n(c2=O)Cc2c-1nc1ccc(O)cc1c2[Si](C)(C)C(C)(C)C", "category_label": "active"}
{"compound": "O=C1C2c3[nH]c4ccccc4c3C3CCSCC3C2C(=O)N1c1ccccc1 (stereo not given)", "category_label": "inactive"}
{"compound": "COc1cc(C2SC(=N)Nc3c2c(C)nn3C(=O)Cc2ccccc2)cc(OC)c1OC (stereo not given)", "category_label": "inactive"}
{"compound": "Cc1ccc(NC(=O)CCC(=O)C2CC(=O)CCC2=O)cc1C (stereo not given)", "category_label": "inactive"}
{"compound": "O=C(Cc1nc2ccccc2c(=O)n1-c1ccccc1Cl)c1ccncc1", "category_label": "inactive"}
{"compound": "c1ccc(-c2cc(-c3cccs3)c(-c3cccs3)s2)cc1", "category_label": "inactive"}
{"compound": "NNc1ncnc2cccc(Cl)c12", "category_label": "inactive"}
{"compound": "CP(C)C.[Ag][I]", "category_label": "inactive"}
{"compound": "CCOc1cc2cnc3c4cc(OC)c(OC)cc4ccc3c2cc1OC", "category_label": "inactive"}
{"compound": "CCC1C(=O)OCc2c1cc1n(c2=O)CCC12OCCO2 (stereo not given)", "category_label": "inactive"}
{"compound": "CCOC(=O)C1C(c2ccco2)C2(C#N)C(=N)OC1(C)C2(C#N)C#N (stereo not given)", "category_label": "inactive"}
{"compound": "COc1cccc(/C=C(/C(=O)O)c2cc(OC)c(OC)c(OC)c2)c1", "category_label": "inactive"}
{"compound": "COC(=O)c1ccc(/C=C2\\Oc3cc(O)ccc3C2=O)cc1", "category_label": "inactive"}
{"compound": "O=CC1OC(=O)c2cc(O)c(O)c(O)c2-c2c(cc(O)c(O)c2O)C(=O)OC1C1OC(=O)c2cc(O)c(O)c(O)c2-c2c(O)c(O)c3oc(=O)c4c(c(O)c(O)c5oc(=O)c2c3c54)-c2c(cc(O)c(O)c2O)C(=O)OCC1O (stereo not given)", "category_label": "inactive"}
{"compound": "CS(=O)(=O)c1nc(-c2cc3c(c(S(C)(=O)=O)n2)CCC3)cc2c1CCC2", "category_label": "inactive"}
{"compound": "CCCCCN(CCCCC)C(=O)[C@H](CCC(=O)OCc1ccccc1)NC(=O)c1cc2ccccc2[nH]1", "category_label": "inactive"}
{"compound": "CN(C)CC1CCCC/C1=N/O (stereo not given)", "category_label": "inactive"}
{"compound": "Cn1c(=O)n2n(c1=O)C(C)(C13CC4CC(CC(C4)C1)C3)C13CC4CC(CC1C4)CC23 (stereo not given)", "category_label": "inactive"}
{"compound": "COc1ccccc1OC(=O)/C=C/c1ccccc1", "category_label": "inactive"}
{"compound": "Cn1c(=O)cc(N2CCCC2)[nH]c1=O", "category_label": "inactive"}
{"compound": "COc1c(-c2ccc(F)cc2)oc2cc(O)cc(O)c2c1=O", "category_label": "inactive"}
{"compound": "COC(=O)C(=O)C(C(=O)C(=O)Nc1cccc(C(C)=O)c1)c1nc2ccc([N+](=O)[O-])cc2nc1O (stereo not given)", "category_label": "inactive"}
{"compound": "CC1=NN(c2cccc(Cl)c2)C2(SCC(=O)N2c2nc3ccccc3s2)/C1=C\\c1ccc(N(C)C)cc1 (stereo not given)", "category_label": "inactive"}
{"compound": "Cc1cc2nc3c(C(O)CO)nn(-c4ccccc4)c3nc2cc1C (stereo not given)", "category_label": "inactive"}
{"compound": "COc1cccc2c1OC(c1ccc(C#N)cc1)C([N+](=O)[O-])=C2 (stereo not given)", "category_label": "inactive"}
